These data points were gathered from ChEMBL document CHEMBL1127688.

test system: Rattus norvegicus; experiment: Minimum dose of iv injection that shows vagus reflex and a heart rate decrease of 50 beats/min in non-vagotomized rats; assay type: functional
measured-attribute: Dose
Answer by giving the amount and then stating its unit.

Would you please look over these solved cases?
1) COc1cc(CNC(=O)CCCC/C=C/C(C)C)ccc1O	0.001 mg/kg
2) CCCCCCCCC(=O)NCc1ccc(OCCN(CC)CC)c(OC)c1	0.5 mg/kg
3) CCCCCCCCC(=O)NCc1ccc(OCCN(C)C)c(OC)c1	0.5 mg/kg
4) CCCCCCCCC(=O)NCc1ccc(O)c(OC)c1 [NONIVAMIDE]	0.005 mg/kg

Then this compound:
Return value of Dose for input CCCCCCCCC(=O)NCc1ccc(OCCO)c(OC)c1 , no commentary.
0.3 mg/kg
